# assay_info: Water solubility at pH 5
# Type: physicochemical
recorded_endpoint: solubility (µg/mL)

INSERT INTO measurements (test_smiles, value_measured) VALUES
  ('CCCOc1c(OCCCN2CCOCC2)cc([C@@H]2CC[C@@H](c3cc(OC)c(OC)c(OC)c3)O2)cc1S(=O)(=O)CC(C)=O', 5400),
  ('CCCOc1c(OCCCn2ccnc2)cc([C@@H]2CC[C@@H](c3cc(OC)c(OC)c(OC)c3)O2)cc1S(=O)(=O)CC(C)=O', 5500);

###

# system_name: Platelet-activating factor receptor (Homo sapiens)
# Sequence (P25105 whole entry): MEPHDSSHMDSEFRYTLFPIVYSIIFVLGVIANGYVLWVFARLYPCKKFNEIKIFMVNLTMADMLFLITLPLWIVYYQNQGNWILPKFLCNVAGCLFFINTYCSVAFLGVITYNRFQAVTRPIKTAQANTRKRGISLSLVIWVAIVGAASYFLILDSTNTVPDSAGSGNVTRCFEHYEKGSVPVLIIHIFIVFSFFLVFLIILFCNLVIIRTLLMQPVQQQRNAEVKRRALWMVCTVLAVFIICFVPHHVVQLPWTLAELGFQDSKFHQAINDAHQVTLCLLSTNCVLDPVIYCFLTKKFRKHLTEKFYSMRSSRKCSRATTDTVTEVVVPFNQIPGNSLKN
pIC50: −log10 of the molar value.
recorded_endpoint: pIC50

INSERT INTO results (compound, recorded_endpoint, value_measured) VALUES
  ('CCCOc1c(OC)cc([C@H]2CC[C@H](c3cc(OC)c(OC)c(OC)c3)O2)cc1S(C)(=O)=O (single isomer, unassigned)', 'pIC50', 8.05);
